Source: patent US12600726B2

# system_tested: Rat M4 (Rattus norvegicus)
# Construct: expressed in transfected cells; host or cells: CHO-K1 (ATCC), stably expressing M4 and Gqi5
# test_method_notes: mAChR M4 cell-based functional calcium flux assay (rat M4/Gqi5/CHO cells)
# assay_context: decrease of the response to an EC80 concentration of acetylcholine
# Description: Human, rat, or mouse M4. cDNA, along with the chimeric G protein Gqi5, were transfected into Chinese hamster ovary (CHO-K1) cells purchased from the American Type Culture Collection using Lipofectamine2000. […] Calcium flux was measured using the Functional Drug Screening System (FDSS) 6000 or 7000 (Hamamatsu Corporation, Tokyo, Japan) as an increase in the fluorescent static ratio. […] Agonist activity was analyzed as a concentration-dependent increase in calcium mobilization upon compound addition. […]
endpoint_label: pIC50
Lab note: report pIC50 as minus log10 of the concentration in molar units, number only.

Task item: Kindly indicate its recorded pIC50. Item: Cc1nn(C)cc1-c1ccc(NCC2CC23CCN(Cc2ccccc2)CC3)nn1 (centres unmarked)
Reply: 5.44

Task item: Please indicate pIC50 recorded for Cc1nn(C)cc1-c1cnc(NCC2CC23CCN(CCC(C)(C)C)CC3)cn1 (centres unmarked)
Reply: 6.56

Task item: Identify pIC50 associated with the compound CC(C)(C)CCN1CCC2(CC1)CC2CNc1ccc(-c2ccc(F)c(F)c2)nn1 (centres unmarked)
Reply: 6.77

Task item: Using the record for CC(C)(C)CCN1CCC2(CC1)CC2CNc1ncc(-c2ccccc2)s1 (centres unmarked) , state its measured pIC50.
Reply: 6.11

Task item: Given the compound "CC(=O)Nc1ccc(-c2ccc(NC[C@@H]3CC34CCN(Cc3ccc(F)cc3)CC4)nn2)cc1" , write its reported pIC50.
Reply: 6.68

Task item: Look up pIC50 of Cc1nn(C)cc1-c1ccc(NCC2CC23CCN(CCC(C)(C)C)CC3)nn1 (centres unmarked) and report it.
Reply: 7.80

Task item: Given the compound "CC(=O)Nc1ccc(-c2ccc(NC[C@H]3CC34CCN(CCC(C)(C)C)CC4)nn2)cc1" , write its reported pIC50.
Reply: 7.25

Task item: Determine from records and report pIC50 for Cc1nn(C)cc1-c1ccc(NCC2CC23CCN(CC24CC5CC(CC(C5)C2)C4)CC3)nn1 (centres unmarked)
Reply: 6.27

Task item: Look up pIC50 of Cc1cccnc1CN1CCC2(CC1)CC2CNc1ccc(-c2cn(C)nc2C)nn1 (centres unmarked) and report it.
Reply: 5.35

Task item: Give a short answer stating reported pIC50 for Fc1ccc(Cl)c(-c2ccc(OCC3CC34CCN(CC3CCCCC3)CC4)nn2)c1 (centres unmarked) .
Reply: 5.98

Task item: Quickly give me recorded pIC50 for CCCN1CCC2(CC1)CC2CNc1ccc(-c2cn(C)nc2C)nn1 (centres unmarked)
Reply: 5.02

Task item: Please supply the value of reported pIC50 for the item CC(C)(C)CCN1CCC2(CC1)CC2CNc1ccc(-c2cc(F)ccc2Cl)nn1 (centres unmarked)
Reply: 6.93

Task item: Return the recorded pIC50 value; entry: Cc1nn(C)cc1-c1cnc(NCC2CC23CCN(CC2CC4C=CC2C4)CC3)cn1 (centres unmarked)
Reply: 6.72

Task item: Complete the entry with pIC50 for "CC(=O)Nc1ccc(-c2ccc(NC[C@@H]3CC34CCN(CC35CC6CC(CC(C6)C3)C5)CC4)nn2)cc1"
Reply: 7.45

Task item: Respond only with pIC50 recorded for O=C(Nc1ccc(-c2cc(F)ccc2Cl)nn1)C1CC12CCN(CC1CC3C=CC1C3)CC2 (centres unmarked)
Reply: 5.51

Task item: Given CC(C)(C)CCN1CCC2(CC1)CC2CNc1ccc(N2CCCC2)nn1 (centres unmarked) , respond with its pIC50.
Reply: 6.51

Task item: Determine from records and report pIC50 for CC(C)(C)CCN1CCC2(CC1)CC2CNc1ccc(C2=CCCC2)nn1 (centres unmarked)
Reply: 6.46

----------
# system_tested: Rat M4 (Rattus norvegicus)
# Construct: expressed in transfected cells; host or cells: CHO-K1 (ATCC), stably expressing M4 and Gqi5
# Sequence (P08485 1-478): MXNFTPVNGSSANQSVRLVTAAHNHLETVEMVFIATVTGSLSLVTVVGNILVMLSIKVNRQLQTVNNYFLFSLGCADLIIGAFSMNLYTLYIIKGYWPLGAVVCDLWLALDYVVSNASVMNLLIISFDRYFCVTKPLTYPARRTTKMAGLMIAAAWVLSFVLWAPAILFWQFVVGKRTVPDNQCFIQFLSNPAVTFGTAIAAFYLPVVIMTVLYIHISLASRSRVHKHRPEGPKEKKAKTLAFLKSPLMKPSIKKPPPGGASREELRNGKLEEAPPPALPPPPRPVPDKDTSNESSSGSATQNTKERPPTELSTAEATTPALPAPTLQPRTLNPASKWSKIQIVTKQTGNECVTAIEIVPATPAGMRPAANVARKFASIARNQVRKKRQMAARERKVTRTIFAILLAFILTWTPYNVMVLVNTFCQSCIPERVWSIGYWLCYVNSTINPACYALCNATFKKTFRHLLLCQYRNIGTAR
# test_method_notes: mAChR M4 cell-based functional calcium flux assay (rat M4/Gqi5/CHO cells)
# assay_context: decrease of the response to an EC80 concentration of acetylcholine
endpoint_label: IC50 (nM)
Could you give me the number in nM? Just the number is fine.

Task item: Look up IC50 of CC(C)(C)CCN1CCC2(CC1)CC2CNc1ccc(-c2cc(F)ccc2C#N)nn1 (stereo not shown) [Compound 43] and report it.
Reply: 199

Task item: Give reported IC50 value for c1cc(N2CCOCC2)nnc1NCC1CC12CCN(CC13CC4CC(CC(C4)C1)C3)CC2 (stereo not shown) [Compound 84]
Reply: 257

Task item: Name the recorded IC50 of the item CC(C)(C)CCN1CCC2(CC1)CC2CNc1ccc(-c2cc(F)ccc2Cl)cn1 (stereo not shown) [Compound 69] in your answer.
Reply: 1800

Task item: Give the reported value of IC50 for this record: Fc1ccc(Cl)c(-c2ccc(NC[C@@H]3CC34CCN(CC3CCCCC3)CC4)nn2)c1 [Compound 65]
Reply: 80.9

----------
# system_tested: Human M4 (Homo sapiens, UniProt P08173)
# Construct: expressed in transfected cells; host or cells: CHO-K1 (ATCC), stably expressing M4 and Gqi5
# Sequence (P08173 whole entry): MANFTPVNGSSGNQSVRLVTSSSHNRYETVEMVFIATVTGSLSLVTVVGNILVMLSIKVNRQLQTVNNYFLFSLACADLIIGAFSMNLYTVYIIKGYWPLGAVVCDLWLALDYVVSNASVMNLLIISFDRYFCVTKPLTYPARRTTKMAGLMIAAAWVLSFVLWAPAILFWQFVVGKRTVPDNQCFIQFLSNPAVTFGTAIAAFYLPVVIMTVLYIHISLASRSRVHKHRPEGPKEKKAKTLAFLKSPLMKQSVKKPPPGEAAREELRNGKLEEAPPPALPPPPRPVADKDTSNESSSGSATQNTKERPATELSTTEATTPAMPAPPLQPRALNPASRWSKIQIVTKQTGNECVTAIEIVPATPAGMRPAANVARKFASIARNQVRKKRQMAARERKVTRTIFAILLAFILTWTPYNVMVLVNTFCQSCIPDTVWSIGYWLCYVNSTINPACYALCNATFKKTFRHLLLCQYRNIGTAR
# test_method_notes: mAChR M4 cell-based functional calcium flux assay (human M4/Gqi5/CHO cells)
# assay_context: % ACh maximum at 30 μM
Kindly supply the reported Emin (human M4) values for the records listed here.
Report the figure along with its unit, number first.

Task item: Return reported Emin (human M4) for target or system Human M4 (Homo sapiens, UniProt P08173), item CC(CN1CCC2(CC1)CC2CNc1ccc(-c2cc(F)ccc2Cl)nn1)C(C)(C)C (stereo not shown) [Compound 12] .
Reply: 2.15%

Task item: Write down the reported Emin (human M4) (system: Human M4 (Homo sapiens, UniProt P08173)) of CC(C)(C)CCN1CCC2(CC1)CC2CNc1ccc(-c2cc(F)ccc2F)nn1 (stereo not shown) [Compound 30]
Reply: 2.43%

Task item: Tell me Emin (human M4) of Fc1ccc(Cl)c(-c2ccc(NC[C@H]3CC34CCN(CC3CCCCC3)CC4)nn2)c1 [Compound 67] when tested on Human M4 (Homo sapiens, UniProt P08173).
Reply: 3.66%

Task item: Report the value of Emin (human M4) obtained on Human M4 (Homo sapiens, UniProt P08173) for Cc1nn(C)cc1-c1ccc(NCC2CC23CCN(CC2CCCOC2)CC3)nn1 (stereo not shown) [Compound 60] .
Reply: 3.93%

----------
# system_tested: Rat M4 (Rattus norvegicus)
# Construct: expressed in transfected cells; host or cells: CHO-K1 (ATCC), stably expressing M4 and Gqi5
# test_method_notes: mAChR M4 cell-based functional calcium flux assay (rat M4/Gqi5/CHO cells)
# assay_context: decrease of the response to an EC80 concentration of acetylcholine
Checkbox rule: IC50 lower than 100 nM = 1; IC50 not lower than 100 nM = 0.

Task item: Confirm or reject: IC50 of Cc1cnn(C)c1-c1ccc(NCC2CC23CCN(CCC(C)(C)C)CC3)nn1 (centres unmarked) lies strictly below 100 nM
Reply: 1

Task item: Strictly below 100 nM in IC50? CC(C)(C)/C=C/c1ccc(NCC2CC23CCN(CCC(C)(C)C)CC3)nn1 (centres unmarked)
Reply: 0

Task item: Strictly below 100 nM in IC50? CC(C)(C)CCN1CCC2(CC1)CC2CNc1ccc(-c2ccc3c(c2)OCO3)nn1 (centres unmarked)
Reply: 0

Task item: IC50 strictly < 100 nM for this compound? "Cc1cccnc1CN1CCC2(CC1)C[C@H]2CNc1ccc(-c2cc(F)ccc2Cl)nn1"
Reply: 0

Task item: Just wondering, is IC50 of CC(C)(C)CCN1CCC2(CC1)CC2CNc1ccc(-c2cc(F)cc(F)c2)nn1 (centres unmarked) below 100 nM?
Reply: 0

Task item: Say whether its IC50 is strictly beneath 100 nM. Entry: Fc1ccc(Cl)c(-c2ccc(NCC3CC34CCN(CC(c3ccccc3)c3ccccc3)CC4)nn2)c1 (centres unmarked)
Reply: 0

Task item: Consider the compound "Fc1ccc(Cl)c(-c2ccc(NC[C@@H]3CC34CCN(CC3CCCCCC3)CC4)nn2)c1" . Is its IC50 strictly less than 100 nM?
Reply: 1

Task item: Determine whether this compound shows IC50 lower than 100 nM (ties excluded): CC(C)(C)CCN1CCC2(CC1)CC2CNc1ccc(Cl)nn1 (centres unmarked)
Reply: 0
